- Subject Of Test: T1, full-length cynoTIGIT on CHO cells (monkey (cyno), UniProt A0A7N9I9V4 89-312)
- T1 construct: whole, on cells; also called CHO-cynoTIGIT; monkey TIGIT
- Measurement Notes: FACS titration on CHO-cynoTIGIT cells, PE goat anti-mouse IgG
# pEC50 annotations
# pEC50 is unitless: minus log10 of the molar concentration; print number only

Use these answered entries as a reference point.
Incoming: Report pEC50 for Tigit-5 mouse monoclonal antibody (antibody, V domains shown, Mouse monoclonal antibody from hybridoma) VH: QVQLQQPGAELVRPGASVKLSCKASGYSFTSYWMNWVKQRPGQGLEWIGMIRPSDSETRLNQMFKDKATLTVDKSSSTAYMQLSSPTSDDSAVYYCAGIHDYGHGAYWGQGTLVTVSA VL: DIQMIQSPASLSVSVGETVTITCRASENIYSNLAWYQQKQGKSPQLLVYAASHLPDGVPSRFSGSGSGTQYSLKINSLQSEDFGSYYCQHFWGTPRTFGGGTKLEIKR please.
Outgoing: 9.37

Incoming: Report pEC50 for 3Tigit-16 mouse monoclonal antibody (antibody, V domains shown, Mouse monoclonal antibody from hybridoma) VH: EVQLQQSGPELVKPGASVKMSCKASGFTFTDYFMDWVKQSRGASFEWIGRLNPNNGRTSYNQKFKGKATLTVDKSSSTAYMELNSLTSEDSAVYYCARGDLGRWYFDVWGAGTTVTVSS VL: QIVLTQSPAIMSASPGEKVTMTCSASSSVSYMHWYQQKSGTSPKRWIYDTSKLASGVPTRFSGSGSGTSYSLTISSMEAEDAASYFCQQWSSNSLTFGAGTKLELKR please.
Outgoing: 9.12

Others:
Incoming: Report pEC50 for 3Tigit-29 mouse monoclonal antibody (antibody, V domains shown, Mouse monoclonal antibody from hybridoma) VH: EVQLQQSGPELVKPGASVKISCKASGYTFTDYNMHWVKQSLGKSLEWIGYVNSFNGNTGYSQKFKSKVTLTVDRSSRTAYMDLRSLTSEDSAVFYCARSSRGGFAYWGQGTLVTVSA VL: QIVLTQSPAIMSASPGEKVTMTCSASSSVSYMHWYQQKSGTSPKRWIYDTSKLASGVPARFSGSVSGTSYSLTISSMEAEDAATYYCQQWSSNSLTFGAGTKLELKR please.
Outgoing: 9.30

Incoming: Report pEC50 for 3Tigit-12 mouse monoclonal antibody (antibody, V domains shown, Mouse monoclonal antibody from hybridoma) VH: QVQLQQSGAELVRPGTSVKMSCKAAGYTFTNYWIGWVKQRPGHGLEWIGDIYPGGGYTNYDEKFKGKATLTADTSSRTAYMQLSSLTSEDSAIYHCVNGGYGSTYGYFDVWGAGTTVTVSS VL: DIVMSQSPSSLPVSVGEKVTMSCKSSQSLLFSSDQKNYLAWYQQKPGQSPKLLIYWASTRESGVPDRLTGSGSGTDFTLTISSVKAEDLAVYYCQQYHKYPFTFGGGTKLEIKR please.
Outgoing: 9.45
